Where do these numbers come from? They come from paper PMC5216056.

# Study Target: mCB2R (Mus musculus, UniProt P47936)
# Sequence (P47936 whole entry): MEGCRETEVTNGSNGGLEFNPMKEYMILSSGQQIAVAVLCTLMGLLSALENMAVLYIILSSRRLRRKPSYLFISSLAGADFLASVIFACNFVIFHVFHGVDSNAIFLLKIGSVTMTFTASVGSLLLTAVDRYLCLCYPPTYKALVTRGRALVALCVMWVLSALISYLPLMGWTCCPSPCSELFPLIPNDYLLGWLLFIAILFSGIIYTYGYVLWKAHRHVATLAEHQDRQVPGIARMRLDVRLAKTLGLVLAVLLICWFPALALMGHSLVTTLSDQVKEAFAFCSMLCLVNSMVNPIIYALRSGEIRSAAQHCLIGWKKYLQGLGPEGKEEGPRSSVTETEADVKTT
# Test: biochemical
# Assay type: biochemical
# Design: from tissue; host or cells: spleen of male C57BL/6J mice
Outcome Measure: pEC50
Conceptually, pEC50 converts a concentration in mol/L into minus its log10.

>>> quantitative_readout("CCCCC/C=C\\C/C=C\\C/C=C\\C/C=C\\CCCC(=O)NCCO [Anandamide, N-arachidonoylethanolamine]")
6.82

QUERY: Report pEC50 for `CCCCCCC(C)(C)c1cc(OC)c([C@@H]2C=C(CO)[C@@H]3C[C@H]2C3(C)C)c(OC)c1`
RESULT: 8.43

* * *

Measured LogR cAMP by item
# Study Target: UniProt P47936
# Test: Operational analysis of biased signalling

The examples below pair each entry with its known result.
>>> result("CCCCCCC(C)(C)c1cc(OC)c([C@@H]2C=C(CO)[C@@H]3C[C@H]2C3(C)C)c(OC)c1")
"8.07 ± 0.22"
>>> result("CCCCCCC(C)(C)c1ccc([C@@H]2C[C@H](O)CC[C@H]2CCCO)c(O)c1")
"10.52 ± 0.14"
>>> result("CCCC(C)(C)c1ccc2c(c1)OC(C)(C)[C@@H]1CC=C(C)C[C@@H]21")
"8.07 ± 0.09"

QUERY: Please tell me the measured LogR cAMP for `CCCCCCC(C)(C)c1cc(OC)c(C2=C[C@H]3CC[C@]2(CO)C3(C)C)c(OC)c1` ; system: UniProt P47936.
RESULT: 8.48 ± 0.18
